target: human CYP4A11 (Homo sapiens (Human), UniProt Q02928); experiment: Inhibition test against 20-HETE producing enzyme CYP4A11 (luciferine derivative, luminescence); format: biochemical; settings: human CYP4A11, luciferine derivative, luminescence
Sequence (Q02928 5-519): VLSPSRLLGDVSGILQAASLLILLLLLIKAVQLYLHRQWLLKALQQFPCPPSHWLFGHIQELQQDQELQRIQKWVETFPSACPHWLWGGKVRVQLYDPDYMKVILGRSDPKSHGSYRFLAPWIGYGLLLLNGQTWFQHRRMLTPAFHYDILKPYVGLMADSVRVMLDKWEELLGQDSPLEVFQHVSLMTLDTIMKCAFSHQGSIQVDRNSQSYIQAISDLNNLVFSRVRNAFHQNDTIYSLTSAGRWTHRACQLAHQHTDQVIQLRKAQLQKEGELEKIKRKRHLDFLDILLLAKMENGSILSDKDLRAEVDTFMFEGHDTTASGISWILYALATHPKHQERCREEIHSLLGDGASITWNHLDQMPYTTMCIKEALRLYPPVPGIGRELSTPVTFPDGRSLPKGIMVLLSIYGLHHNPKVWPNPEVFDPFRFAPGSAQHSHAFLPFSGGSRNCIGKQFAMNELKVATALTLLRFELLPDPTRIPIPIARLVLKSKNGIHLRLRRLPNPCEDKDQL
assay metric: pIC50
# log scale: pIC50 equals minus log10 of the concentration in mol/L

Consider the reported pIC50 for these molecules:
> print(dat)
                         structure.notation  measured.number
1  O=C(O)[C@H]1CCCN(S(=O)(=O)c2cccc(COc3ccc(-c4ccn[nH]4)nc3)c2)C1             7.40
2  O=C(O)C1(Cc2ccc(CCOc3ccc(-c4ccn[nH]4)nc3)cc2)CC1             6.89

## Input Form field: reported pIC50 of `CC(C)(Oc1ccc(CCOc2ccc(-c3ccn[nH]3)nc2)cn1)C(=O)O`
## Output 5.21

These measurements were taken from patent US11365192B2.
